B1: minF1; a variant is named by its letters at N, in order (parent)
chain: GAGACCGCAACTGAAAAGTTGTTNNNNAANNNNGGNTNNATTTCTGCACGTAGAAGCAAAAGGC

# Variants of: B1
# ASSAY EXPLANATION: fraction ligated after 30 min (ligated reads / total reads); higher = more ligase activity
# TEST CONDITIONS: with F1*subA RNA substrate (template-directed ligation), 42 °C
Classify by measured fraction ligated: 1 if it is equal to or exceeds 0.004, 0 if it is smaller.

Would you please look over these solved cases?
GAGACCGCAACTGAAAAGTTGTTATCAGAAAGTGGGTTGATTTCTGCACGTAGAAGCAAAAGGC [ATCAAAGTGTG A28G]; 0
GAGACCGCAACTGAAAAGTTGTTAAGAAATGGAGGTTGAATTTCTGCACGTAGAAGCAAAAGGC [AAGATGGATGA]; 1
GAGACCGCAACTGAAAAGTTGTTATCAAAAGGAGGGTTAATTTCTGCACGTAGAAGCAAAAGGC [ATCAAGGAGTA]; 1
GAGACCGCAACTGAAAAGTTGTTACAGATGGATGGGTTGATTTCTGCACGTAGAAGCAAAAGGC [ACAGGGATGTG A29T]; 1
GAGACCGCAACTGAAAAGTTGTTATCAAAATGGATGGTTGTTTCTGCACGTAGAAGCAAAAGGC [ATCAATGGGTT G34A G35T T37G A40G]; 0
GAGACCGCAACTGAAAAGTTGTTACGAAAGGATGGTTGAATTTCTGCACGTAGAAGCAAAAGGC [ACGAGGATTGA]; 0
GAGACCGCAACTGAAAAGTTGTATCAGAATGGATGGGTTATTTCTGCACGTAGAAGCAAAAGGC [TCAGTGGAGTT T23A G34T T37G]; 0
GAGACCGCAACTGAAAAGTTGTTAAGAAATGTGGGTTGAATTTCTGCACGTAGAAGCAAAAGGC [AAGATGTGTGA]; 0

Moving on to another variant below.
Assess whether reported fraction ligated for GAGACCGCAACTGAAAAGTTGTTACAAAATGGAGGGTTGATTTCTGCACGTAGAAGCAAAAGGC [ACAATGGAGTG] sits at 0.004 or higher.
0
